Where do these numbers come from? They come from ChEMBL document CHEMBL5370650.

- Assay Info: Inhibition of LPS-induced IL-6 secretion in human PBMC cells incubated for 4 hrs by ELISA
pIC50: −log10 of the molar value.
Kindly state pIC50 for each of the entries shown.

stdin: Provide pIC50 value for the following molecule: CC(C)(O)c1coc(S(=O)(=O)NC(=O)Nc2c3c(cc4c2CCC4)CCC3)c1
stdout: < 4.40

stdin: // fetch pIC50 given entry CCOC(=O)[C@@H](Cc1ncccn1)NC(=O)Nc1c2c(cc3c1CCC3)CCC2
stdout: 5.37

stdin: Note down pIC50 recorded for CC(C)OC(=O)[C@@H](Cc1ncccn1)OC(=O)Nc1c2c(cc3c1CCC3)CCC2 [NT-0796]
stdout: < 5.70

----------
- Measured On: NACHT, LRR and PYD domains-containing protein 3 (Homo sapiens, UniProt Q96P20)
- Sequence (Q96P20 whole entry, the tested form may be a part): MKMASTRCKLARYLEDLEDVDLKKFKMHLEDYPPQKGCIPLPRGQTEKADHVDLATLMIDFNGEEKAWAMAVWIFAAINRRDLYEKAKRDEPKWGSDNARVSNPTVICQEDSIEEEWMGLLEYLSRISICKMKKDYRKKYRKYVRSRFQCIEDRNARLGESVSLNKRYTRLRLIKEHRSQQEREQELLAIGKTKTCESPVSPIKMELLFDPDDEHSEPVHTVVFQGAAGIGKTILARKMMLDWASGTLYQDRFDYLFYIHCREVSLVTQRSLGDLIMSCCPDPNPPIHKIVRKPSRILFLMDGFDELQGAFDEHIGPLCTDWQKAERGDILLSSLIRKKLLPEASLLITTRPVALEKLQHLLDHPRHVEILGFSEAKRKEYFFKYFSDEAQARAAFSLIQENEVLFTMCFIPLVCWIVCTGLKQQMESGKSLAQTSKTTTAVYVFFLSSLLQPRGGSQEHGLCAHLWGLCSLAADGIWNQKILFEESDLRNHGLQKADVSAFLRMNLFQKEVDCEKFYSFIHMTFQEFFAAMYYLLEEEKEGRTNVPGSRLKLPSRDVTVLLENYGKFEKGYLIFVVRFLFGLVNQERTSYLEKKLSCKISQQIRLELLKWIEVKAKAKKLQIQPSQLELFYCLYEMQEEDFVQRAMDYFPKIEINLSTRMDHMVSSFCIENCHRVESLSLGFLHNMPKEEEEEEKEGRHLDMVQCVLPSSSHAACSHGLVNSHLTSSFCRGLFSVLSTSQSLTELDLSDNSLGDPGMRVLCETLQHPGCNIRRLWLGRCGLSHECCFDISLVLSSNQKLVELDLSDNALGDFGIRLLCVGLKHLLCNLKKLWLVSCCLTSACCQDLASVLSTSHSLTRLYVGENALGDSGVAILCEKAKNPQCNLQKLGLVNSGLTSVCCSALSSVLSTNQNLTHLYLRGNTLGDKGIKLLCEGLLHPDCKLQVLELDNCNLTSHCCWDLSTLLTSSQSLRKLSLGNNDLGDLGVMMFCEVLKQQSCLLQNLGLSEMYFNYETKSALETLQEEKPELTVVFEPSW
- Assay Info: Inhibition of NLRP3 inflammasome activation in LPS-activated human PBMC cells assessed as inhibition of ATP/nigericin induced IL-1beta secretion preincubated with LPS for 3 hrs followed by compound addition for 30 mins and further stimulated with ATP for 1 hr by ELISA
- Format: cell-based
Quantity: IC50

stdin: Name the recorded IC50 of the item CCOC(=O)COC(=O)N(C)c1c2c(cc3c1CCC3)CCC2 in your answer.
stdout: > 40 µM

stdin: Using known records, supply IC50 for CCOC(=O)COC(=O)Nc1ccccc1C(F)(F)F
stdout: > 20 µM

stdin: Return reported IC50. Input compound: CCOC(=O)COC(=O)Nc1c(C)cccc1CC
stdout: 1.5 µM

----------
Protein target, amino acids: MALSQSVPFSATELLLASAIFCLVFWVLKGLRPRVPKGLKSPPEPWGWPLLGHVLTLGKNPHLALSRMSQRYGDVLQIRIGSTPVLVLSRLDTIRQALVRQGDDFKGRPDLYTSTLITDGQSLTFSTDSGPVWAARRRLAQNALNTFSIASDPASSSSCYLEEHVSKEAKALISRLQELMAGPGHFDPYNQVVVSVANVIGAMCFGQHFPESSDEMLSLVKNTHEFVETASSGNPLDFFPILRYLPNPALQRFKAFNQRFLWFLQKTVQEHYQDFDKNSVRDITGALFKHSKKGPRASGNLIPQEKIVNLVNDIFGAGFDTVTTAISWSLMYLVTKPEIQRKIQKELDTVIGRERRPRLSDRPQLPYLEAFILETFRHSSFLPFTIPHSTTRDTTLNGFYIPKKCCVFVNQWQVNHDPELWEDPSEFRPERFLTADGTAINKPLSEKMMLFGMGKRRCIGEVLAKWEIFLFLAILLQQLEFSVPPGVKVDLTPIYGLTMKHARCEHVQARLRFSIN
Would you mind telling me the reported IC50 of each entry?

stdin: Specify reported IC50 for the compound shown: CC(C)OC(=O)[C@@H](Cn1cncn1)OC(=O)Nc1c2c(cc3c1CCC3)CCC2
stdout: 0.18 µM

stdin: Hello, please tell me recorded IC50 for this one: O=C(Nc1c2c(cc3c1CCC3)CCC2)O[C@H](Cc1ncccn1)C(=O)O
stdout: > 30 µM
